IC50 values, listed per item
- EXPERIMENT SUMMARY: Antiproliferative activity against HUVEC cells
- TEST PARAMETERS: human
PROPERTY: IC50 (µM)

INSERT INTO measurements (compound, value_measured) VALUES
  ('CS(=O)(=O)Nc1ccc(-c2ccnc(Nc3ccc(N4CCN(CC(=O)Nc5ccc(C(=O)NO)cc5)CC4)cc3)n2)cc1', 10),
  ('N#CCNC(=O)c1ccc(-c2ccnc(Nc3ccc(N4CCOCC4)cc3)n2)cc1 [MOMELOTINIB]', 7.3);

###

half-life at 1 µM values, listed per item
- EXPERIMENT SUMMARY: Metabolic stability of the compound in female ICR mouse liver microsomes assessed as half life at 1 uM measured up to 45 mins by LC-MS/MS analysis
- Format: ADME
PROPERTY: half-life at 1 µM (min)

INSERT INTO assay_data (smiles_data, property, unit_label, value_measured) VALUES
  ('CS(=O)(=O)Nc1ccc(-c2ccnc(Nc3ccc(N4CCN(CC(=O)Nc5ccc(C(=O)NO)cc5)CC4)cc3)n2)cc1', 'half-life at 1 µM', 'min', 39.8),
  ('CS(=O)(=O)Nc1ccc(-c2ccnc(Nc3ccc(N4CCN(CC(=O)Nc5ccc(/C=C/C(=O)NO)cc5)CC4)cc3)n2)cc1', 'half-life at 1 µM', 'min', 56.3);
